settings: in acetone, 328.15 K
measure: solubility (mole fraction)
API note: the answer field is a bare number with no unit suffix.

Ask: Given "Oc1ccc(C2(c3ccc(O)cc3)CCCCC2)cc1" , state its recorded solubility (mole fraction).
Result: 0.219

###

details: in isopropanol, 328.15 K
measure: solubility (mole fraction)
Enter a number only.

Ask: Fill in the blank: the reported solubility (mole fraction) of "Oc1ccc(C2(c3ccc(O)cc3)CCCCC2)cc1" is ____.
Result: 0.0294

###

conditions: in n-butanol, 328.15 K
measure: solubility (mole fraction)

Ask: solubility (mole fraction) lookup needed for "Oc1ccc(C2(c3ccc(O)cc3)CCCCC2)cc1" , thanks.
Result: 0.0431

###

settings: in ethanol, 288.15 K
measure: solubility (mole fraction)
Could you keep your reply to the number by itself?

Ask: For the compound shown here, "Oc1ccc(C2(c3ccc(O)cc3)CCCCC2)cc1" , give the reported solubility (mole fraction).
Result: 0.0073

###

details: in ethyl acetate, 298.15 K
measure: solubility (mole fraction)
Reply briefly: the number, and no unit.

Ask: Please report the recorded solubility (mole fraction) for "Oc1ccc(C2(c3ccc(O)cc3)CCCCC2)cc1" .
Result: 0.0769

###

details: in n-butanol, 288.15 K
measure: solubility (mole fraction)
// keep it numeric: no unit symbol after the value

Ask: Name the recorded solubility (mole fraction) for "Oc1ccc(C2(c3ccc(O)cc3)CCCCC2)cc1" .
Result: 0.012

###

settings: in THF, 313.15 K
measure: solubility (mole fraction)

Ask: Reported solubility (mole fraction), compound "Oc1ccc(C2(c3ccc(O)cc3)CCCCC2)cc1" : ____
Result: 0.251

###

settings: in ethyl acetate, 318.15 K
measure: solubility (mole fraction)
Answer as a number with no unit attached.

Ask: Look up solubility (mole fraction) for this compound: "Oc1ccc(C2(c3ccc(O)cc3)CCCCC2)cc1"
Result: 0.15

###

conditions: in methanol, 308.15 K
measure: solubility (mole fraction)

Ask: I have this compound here, "Oc1ccc(C2(c3ccc(O)cc3)CCCCC2)cc1" , and I need its recorded solubility (mole fraction).
Result: 0.0253

###

details: in THF, 288.15 K
measure: solubility (mole fraction)
Field format: numeric only.

Ask: I would be grateful if you could share the reported solubility (mole fraction) for "Oc1ccc(C2(c3ccc(O)cc3)CCCCC2)cc1" .
Result: 0.182

###

details: in ethyl acetate, 308.15 K
measure: solubility (mole fraction)
// return a plain number; no unit text

Ask: Tell me the measured solubility (mole fraction) of "Oc1ccc(C2(c3ccc(O)cc3)CCCCC2)cc1" , please.
Result: 0.113

###

settings: in n-butanol, 303.15 K
measure: solubility (mole fraction)

Ask: Reported solubility (mole fraction), compound "Oc1ccc(C2(c3ccc(O)cc3)CCCCC2)cc1" : ____
Result: 0.0157

###

details: in isopropanol, 308.15 K
measure: solubility (mole fraction)
Answer with the value's number alone.

Ask: Name the reported solubility (mole fraction) value associated with the molecule "Oc1ccc(C2(c3ccc(O)cc3)CCCCC2)cc1"
Result: 0.0089

###

conditions: in n-butanol, 298.15 K
measure: solubility (mole fraction)
// response body must contain only the number

Ask: Report solubility (mole fraction) for "Oc1ccc(C2(c3ccc(O)cc3)CCCCC2)cc1" please.
Result: 0.0133

###

conditions: in n-butanol, 313.15 K
measure: solubility (mole fraction)
Please state the value as a number alone, without comment.

Ask: May I ask what solubility (mole fraction) has been recorded for "Oc1ccc(C2(c3ccc(O)cc3)CCCCC2)cc1" ?
Result: 0.0236
